Please go through the items and note down their inhibition ratio% K. pneumonia.
- Test system: Klebsiella pneumonia
- TEST DESCRIPTION: Antimicrobial activity
- Format: cell-based
- SETTINGS: 50 μg mL^−1; NA: not active
Respond with the bare value in %.

[in] Retrieve inhibition ratio% K. pneumonia measured for NS(=O)(=O)c1ccc(NC2=NC(=O)/C(=C\c3ccc(C(=O)O)cc3)S2)cc1 and print it.
[out] 26.80

[in] Retrieve inhibition ratio% K. pneumonia measured for COc1cc(/C=C2/SC(Nc3ccc(S(N)(=O)=O)cc3)=NC2=O)ccc1O and print it.
[out] 33.51

[in] Retrieve inhibition ratio% K. pneumonia measured for O=C(O)c1cn(C2CC2)c2cc(N3CCNCC3)c(F)cc2c1=O [Cip, ciprofloxacin, reference compound] and print it.
[out] 99.7

[in] Retrieve inhibition ratio% K. pneumonia measured for C=CCc1cc(/C=C2/SC(Nc3ccc(S(N)(=O)=O)cc3)=NC2=O)c(O)c(OC)c1 and print it.
[out] 62.89
